Assay: yeast display, Sf9 membrane polyspecificity reagent, FACS + sequencing; frameworks hold sequencing errors
Assay endpoint: polyreactivity (PSR sort gate)

Would you please look over these solved cases?
# Sequence code, polyreactivity (PSR sort gate)
measured = [
    ("QVQLVESGGGLVQEGGSLRLSCAASGSIFFPYAMGWYRQAPGKEREFFADITWSGGSTYYADSVKGRFTISRDNAKNTVYLQMNSLKPEDTAVYYCNTDYYLLSVVWFSYTLYEYWGQGTQVTLSS", "high polyreactivity"),
    ("QVQLVESGGGLVQAGGSLRLSCAASGRIFVYNAMGWYRQAPGKERELVASISSTTSTYYADSVKGRFTISRDNAKNTVYLQMNSLKPEDTAVYYCNARYQTRYGRYWYKVRGMDYWGQGTQVTVSS", "high polyreactivity"),
    ("QVQLVESGGGLVQAGGSLRISCAASGGTFHRYAMGWYRQAPGKERELVAAISGSGASTYYADSVKGRFTISRDNAKNTVYLQMNSLKPEDTAVYYCNAYYYPYWYRYYYWGQGTQVTVSS", "high polyreactivity"),
    ("QVQLVESGAGLVQAGGSLRLSCAAYGSIFIIYAMGWYRQAPGKERELVAAINTSGTSTYYADSVKGRFTISRDNAKNTVYLQMNSLKPEDTAVYYCAAAGRRSYKYYYWGQGTQVTVSS", "high polyreactivity"),
    ("QVQHVESGGGLVQAGGSLRLSCAASIRIFRYYAMGRSRQGPGKEREVVASSRSASSTYYADSVKGRFTISRDNAKNPVYLQMNSLKAEDTAVYYCNAVSPLSIWSSRDGWYGYWGQGTQVTVSS", "high polyreactivity"),
    ("QVQLVESGGGLVQAGGSLRLSCAASGLTLTYYAMGWYRQAPGKERELVAAISSSGGSTYYADSVKGRFTISRDNAKNTVYLQMNSLKPEDAAVYYCAATRVSWTGRDDYWGQGTQVTVSS", "high polyreactivity"),
    ("QVQLVESGGGLVQAGGSLRLSCAASGSTFVLNAMGWYRQAPGKERELVAAINLDSGNTNYADSVKGRFTISRDNAKYTVYLQMNSLKPEDTAVYYCNTDVKFGGTAYDYWGQGTQVTVSS", "low polyreactivity"),
    ("QVQLEESGGGLVQAGGSLRLSCAASGRIFLYKIMGSYREAPGQERDLVAAISWGTGSTYADSVKGRFTISRDNAINTVYLQIYRLKPEDTAVYYCDADSFMPPYYHWGQGTQVTVSS", "low polyreactivity"),
]

[in] Endpoint output: polyreactivity (PSR sort gate) of `QVQLVESGGGLVQAGGSLRLSCAASGSIFYPYAMGWYRQAPGKERELVAAISSGGTTYYADSVKGRFTISRDNAKNTVYLQMNSLKPEDTAVYYCAAGFYLRAVWMDYWGQGTQVTVSS` . Value?
[out] high polyreactivity

[in] Requested field: polyreactivity (PSR sort gate). Item: `QVQLVESGGGLVQAGGSIRLSCAASGRISAPNAMGWYRQAAVKERELVAAISSGGRTNYADSVKGRFTISRDNEKNTVYLQMNSLKPEDTAVYYCAAYYYNDRMYYWGQGNQVTVSS`
[out] high polyreactivity

[in] Requested read-out: polyreactivity (PSR sort gate). Entry: `QVQLVESGGGLVQAGGSLRLSCAASGYTFKTYPMGSYRQAPGKERELVAAISGSGGSTYYADSVKVRFTISRDNAKNTVYLQMNSLNPEDTAVYYCNASPTTTPNFWRYDYWGQGTQVTVSS`
[out] high polyreactivity

The values you see were collected from the nanobody polyreactivity screen of Harvey et al. (2022).
